Values from patent US6156724A

test system: Balb/c splenocytes (resting lymphocytes); assay: Lymphocyte viability (LcV) assay; type: cell-based, murine; settings: unstimulated Balb/c splenocytes, MTT; highest concentration 10 μg/mL
Numbered stars: 1 amine (or outer) side, 2 acyl side, 3 side chain; on linkers, the order of the positions; unused ones are H or OH. Bridge positions count the residues as written; N and C are the ends. Square brackets hold non-standard residues; d marks the D form. Peptide text beside a SMILES is read from it. * marks the point of attachment. X1 = CC[C@H](C)[C@@H](N[*:1])[C@@H](O)CC(=O)O[C@H](C(=O)[C@H](C)C(=O)[*:2])C(C)C; NMeY = CN[C@@H](Cc1ccc(O)cc1)C(=O)O; dNMeL = CN[C@H](CC(C)C)C(=O)O; Octanoyl = CCCCCCCC(=O)*
Reported endpoint: cytoxicity to lymphocytes LcV, LC50

Q: Query: cytoxicity to lymphocytes LcV, LC50; subject: CC[C@H](C)[C@H]1NC(=O)[C@@H](NC(=O)[C@@H](CC(C)C)N(C)C(=O)[C@@H]2CCCN2C(=O)[C@H](C)O)[C@@H](C)OC(=O)[C@H](Cc2ccc(O)cc2)NC(=O)[C@@H]2CCCN2C(=O)[C@H](CC(C)C)NC(=O)[C@@H](C)C(=O)[C@H](C(C)C)OC(=O)C[C@@H]1O
A: > 10 µg/mL

Q: Query: cytoxicity to lymphocytes LcV, LC50; subject: CCCCCCCC(=O)N(C)[C@H](CC(C)C)C(=O)N[C@@H]1C(=O)N[C@H]([C@@H](C)CC)[C@@H](O)CC(=O)O[C@@H](C(C)C)C(=O)[C@H](C)C(=O)N[C@@H](CC(C)C)C(=O)N2CCC[C@H]2C(=O)N(C)[C@@H](Cc2ccc(OC)cc2)C(=O)O[C@@H]1C [Compound 23, N^α -Octanoyldidemnin A] (Octanoyl-[dNMeL]T[X1]LP[NMeY](Me); ester 2-C)
A: > 10 µg/mL

====

test system: Balb/c splenocytes (resting lymphocytes); test: Lymphocyte viability (LcV) assay; format: cell-based, murine; conditions: unstimulated Balb/c splenocytes, MTT; highest concentration 10 μg/mL
Numbered stars: 1 amine (or outer) side, 2 acyl side, 3 side chain; on linkers, the order of the positions; unused ones are H or OH. Bridge positions count the residues as written; N and C are the ends. Square brackets hold non-standard residues; d marks the D form. Peptide text beside a SMILES is read from it. * marks the point of attachment. X4 = CC[C@H](C)[C@@H](N[*:1])[C@@H](O)CC(=O)O[C@@H](C(C)C)[C@H](O)[C@H](C)C(=O)[*:2]; X5 = CC[C@@H](C)[C@@H](N[*:1])[C@@H](O)CC(=O)O[C@H](C(=O)[C@H](C)C(=O)[*:2])C(C)C; X3 = CC[C@H](C)[C@H](N[*:1])[C@@H](O)CC(=O)O[C@H](C(=O)[C@H](C)C(=O)[*:2])C(C)C; NMeY = CN[C@@H](Cc1ccc(O)cc1)C(=O)O; aThr = C[C@H](O)[C@H](N)C(=O)O; NMeL = CN[C@@H](CC(C)C)C(=O)O; dNMeL = CN[C@H](CC(C)C)C(=O)O; Cbz = O=C(OCc1ccccc1)*; For = O=C*
What cytoxicity to lymphocytes LcV, LC50 was measured for each of the following?

Q: Query: cytoxicity to lymphocytes LcV, LC50; subject: CC[C@@H](C)[C@H]1NC(=O)[C@@H](NC(=O)[C@@H](CC(C)C)N(C)C(=O)OCc2ccccc2)[C@@H](C)OC(=O)[C@H](Cc2ccc(OC)cc2)N(C)C(=O)[C@@H]2CCCN2C(=O)[C@H](CC(C)C)NC(=O)[C@@H](C)C(=O)[C@H](C(C)C)OC(=O)C[C@@H]1O [Compound 5, Z-[(3S,4R,5R)-Ist^2]Didemnin A] (Cbz-[dNMeL]T[X5]LP[NMeY](Me); ester 2-C)
A: > 10 µg/mL

Q: Query: cytoxicity to lymphocytes LcV, LC50; subject: CC[C@H](C)[C@@H]1NC(=O)[C@@H](NC(=O)[C@H](CC(C)C)N(C)C=O)[C@H](C)OC(=O)[C@H](Cc2ccc(OC)cc2)N(C)C(=O)[C@@H]2CCCN2C(=O)[C@H](CC(C)C)NC(=O)[C@@H](C)C(=O)[C@H](C(C)C)OC(=O)C[C@@H]1O [Compound 26, Didemnin G] (For-[NMeL][aThr][X3]LP[NMeY](Me); ester 2-C)
A: > 10 µg/mL

Q: Query: cytoxicity to lymphocytes LcV, LC50; subject: CC[C@H](C)[C@H]1NC(=O)[C@@H](NC(=O)[C@@H](CC(C)C)NC)[C@@H](C)OC(=O)[C@H](Cc2ccc(OC)cc2)N(C)C(=O)[C@@H]2CCCN2C(=O)[C@H](CC(C)C)NC(=O)[C@@H](C)[C@@H](O)[C@H](C(C)C)OC(=O)C[C@@H]1O [Compound 10, [(2S,3R,4S)-H2 Hip^3]Didemnin A] (H-[dNMeL]T[X4]LP[NMeY](Me); ester 2-C)
A: > 10 µg/mL

====

What cytotoxicity to lymphocytes LbV, LC50 was measured for each of the following?
tested on: concanavalin A-induced lymphoblasts (Con A splenocytes); assay: Lymphoblast viability (LbV) assay; conditions: Con A-stimulated splenocytes (lymphoblasts), MTT
Numbered stars: 1 amine (or outer) side, 2 acyl side, 3 side chain; on linkers, the order of the positions; unused ones are H or OH. Bridge positions count the residues as written; N and C are the ends. Square brackets hold non-standard residues; d marks the D form. Peptide text beside a SMILES is read from it. * marks the point of attachment. X1 = CC[C@H](C)[C@@H](N[*:1])[C@@H](O)CC(=O)O[C@H](C(=O)[C@H](C)C(=O)[*:2])C(C)C; NMeY = CN[C@@H](Cc1ccc(O)cc1)C(=O)O; dNMeL = CN[C@H](CC(C)C)C(=O)O; pGlu = O=C1CC[C@@H](C(=O)O)N1; Hexanoyl = CCCCCC(=O)*; Lac = C[C@H](O)C(=O)O
Entry format: amount then unit.

Q: Query: cytotoxicity to lymphocytes LbV, LC50; subject: CC[C@H](C)[C@H]1NC(=O)[C@@H](NC(=O)[C@@H](CC(C)C)N(C)C(=O)[C@@H]2CCCN2C(C)=O)[C@@H](C)OC(=O)[C@H](Cc2ccc(OC)cc2)N(C)C(=O)[C@@H]2CCCN2C(=O)[C@H](CC(C)C)NC(=O)[C@@H](C)C(=O)[C@H](C(C)C)OC(=O)C[C@@H]1O [Compound 31, [Acetyl^9]Didemnin B] (Ac-P[dNMeL]T[X1]LP[NMeY](Me); ester 3-C)
A: 0.16 nM

Q: Query: cytotoxicity to lymphocytes LbV, LC50; subject: CCCCCC(=O)N(C)[C@H](CC(C)C)C(=O)N[C@@H]1C(=O)N[C@H]([C@@H](C)CC)[C@@H](O)CC(=O)O[C@@H](C(C)C)C(=O)[C@H](C)C(=O)N[C@@H](CC(C)C)C(=O)N2CCC[C@H]2C(=O)N(C)[C@@H](Cc2ccc(OC)cc2)C(=O)O[C@@H]1C [Compound 22, N^α -Hexanoyldidemnin A] (Hexanoyl-[dNMeL]T[X1]LP[NMeY](Me); ester 2-C)
A: 0.11 nM

Q: Query: cytotoxicity to lymphocytes LbV, LC50; subject: CC[C@H](C)[C@H]1NC(=O)[C@@H](NC(=O)[C@@H](CC(C)C)N(C)C(=O)[C@@H]2CCCN2C(=O)[C@H](C)OC(=O)[C@H](CCC(N)=O)NC(=O)[C@H](CCC(N)=O)NC(=O)[C@H](CCC(N)=O)NC(=O)[C@@H]2CCC(=O)N2)[C@@H](C)OC(=O)[C@H](Cc2ccc(OC)cc2)N(C)C(=O)[C@@H]2CCCN2C(=O)[C@H](CC(C)C)NC(=O)[C@@H](C)C(=O)[C@H](C(C)C)OC(=O)C[C@@H]1O [Compound 40, Didemnin D] ([pGlu]QQQ[Lac]P[dNMeL]T[X1]LP[NMeY](Me); ester 8-C)
A: 0.85 nM

====

system: concanavalin A-induced lymphoblasts (Con A splenocytes); assay: Lymphoblast viability (LbV) assay; details: Con A-stimulated splenocytes (lymphoblasts), MTT
Numbered stars: 1 amine (or outer) side, 2 acyl side, 3 side chain; on linkers, the order of the positions; unused ones are H or OH. Bridge positions count the residues as written; N and C are the ends. Square brackets hold non-standard residues; d marks the D form. Peptide text beside a SMILES is read from it. * marks the point of attachment. X1 = CC[C@H](C)[C@@H](N[*:1])[C@@H](O)CC(=O)O[C@H](C(=O)[C@H](C)C(=O)[*:2])C(C)C; NMeY = CN[C@@H](Cc1ccc(O)cc1)C(=O)O; dNMeL = CN[C@H](CC(C)C)C(=O)O; Isobutyryl = CC(C)C(=O)*
What cytotoxicity to lymphocytes LbV, LC50 was measured for each of the following?
Express it in nM; write the number only.

Q: Entry CC[C@H](C)[C@H]1NC(=O)[C@@H](NC(=O)[C@@H](CC(C)C)N(C)C(=O)[C@@H]2CCCN2C(=O)[C@H](C)O)[C@@H](C)OC(=O)[C@H](Cc2ccc(OC)cc2)N(C)C(=O)[C@@H]2CCCN2C(=O)[C@H](CC(C)C)NC(=O)[C@@H](C)C(=NO)[C@H](C(C)C)OC(=O)C[C@@H]1O [Compound 11, [Hip^3 oxime]Didemnin B] , system concanavalin A-induced lymphoblasts (Con A splenocytes): what cytotoxicity to lymphocytes LbV, LC50 was measured?
A: 1.7

Q: Entry CC[C@H](C)[C@H]1NC(=O)[C@@H](NC(=O)[C@@H](CC(C)C)N(C)C(=O)[C@@H]2CCCN2C(=O)C(C)C)[C@@H](C)OC(=O)[C@H](Cc2ccc(OC)cc2)N(C)C(=O)[C@@H]2CCCN2C(=O)[C@H](CC(C)C)NC(=O)[C@@H](C)C(=O)[C@H](C(C)C)OC(=O)C[C@@H]1O [Compound 33, [Isobutyryl^9]Didemnin B] (Isobutyryl-P[dNMeL]T[X1]LP[NMeY](Me); ester 3-C) , system concanavalin A-induced lymphoblasts (Con A splenocytes): what cytotoxicity to lymphocytes LbV, LC50 was measured?
A: 0.204
